Parameter inhibition at 0.1 µM: see the listing below.
experimental.system: rat Fatty Acid Amide Hydrolase (FAAH) (Rattus norvegicus (Rat), UniProt P97612)
Sequence (P97612 30-579): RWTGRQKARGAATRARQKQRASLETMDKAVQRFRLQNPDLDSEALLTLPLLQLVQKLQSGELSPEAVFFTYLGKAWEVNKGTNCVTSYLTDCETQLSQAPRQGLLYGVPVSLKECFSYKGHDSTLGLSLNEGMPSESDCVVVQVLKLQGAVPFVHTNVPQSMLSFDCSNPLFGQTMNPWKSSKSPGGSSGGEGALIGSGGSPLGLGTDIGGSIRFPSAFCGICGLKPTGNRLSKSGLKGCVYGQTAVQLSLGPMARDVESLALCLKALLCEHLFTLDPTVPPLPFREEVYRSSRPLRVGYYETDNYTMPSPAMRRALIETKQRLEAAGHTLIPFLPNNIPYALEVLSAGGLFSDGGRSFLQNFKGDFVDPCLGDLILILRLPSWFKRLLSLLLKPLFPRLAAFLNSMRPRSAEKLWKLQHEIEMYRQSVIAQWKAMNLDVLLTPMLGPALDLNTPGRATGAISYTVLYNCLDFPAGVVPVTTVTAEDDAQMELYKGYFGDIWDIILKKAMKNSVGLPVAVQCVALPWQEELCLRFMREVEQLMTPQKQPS
assay.text: FAAH in vitro fluorescence assay (AAMCA hydrolysis), rat enzyme
Format: biochemical
experimental.setup: read-out: rFAAH % inhibition at 100 nM; rat FAAH; 100 nM (tier I)
Write the number in % without appending the unit.

# annotated cases, reported inhibition at 0.1 µM shown
molecule	scale.unit	inhibition at 0.1 µM
O=C(NC1CCC(=Cc2cccc(Oc3ccc(C(F)(F)F)cn3)c2)CC1)c1ccc(-c2nnn[nH]2)nc1 (stereo not shown)	%	50
CCc1nc(Oc2cccc(C=C3CCC(NC(=O)c4ccc(N)nc4)CC3)c2)ccc1C(F)(F)F (stereo not shown)	%	47

Query: Identify the reported inhibition at 0.1 µM for the following entry. O=C(O)c1cnn(-c2ccc(C(=O)NC3CCC(=Cc4cccc(Oc5ccc(C(F)(F)F)cn5)c4)CC3)cn2)c1 (stereo not shown)
Response: 15

Query: Identify the reported inhibition at 0.1 µM for the following entry. Cn1cc(C(=O)NC2CCC(=Cc3cccc(Oc4ccc(C(F)(F)F)cn4)c3)CC2)cn1 (stereo not shown)
Response: 38

Query: Identify the reported inhibition at 0.1 µM for the following entry. Cc1n[nH]c(C)c1C(=O)NC1CCC(=Cc2cccc(Oc3ccc(C(F)(F)F)cn3)c2)CC1 (stereo not shown)
Response: 38

* * *

Parameter IC50: see the listing below.
experimental.system: human Fatty Acid Amide Hydrolase (FAAH) (Homo sapiens (Human))
Sequence (O00519 30-579): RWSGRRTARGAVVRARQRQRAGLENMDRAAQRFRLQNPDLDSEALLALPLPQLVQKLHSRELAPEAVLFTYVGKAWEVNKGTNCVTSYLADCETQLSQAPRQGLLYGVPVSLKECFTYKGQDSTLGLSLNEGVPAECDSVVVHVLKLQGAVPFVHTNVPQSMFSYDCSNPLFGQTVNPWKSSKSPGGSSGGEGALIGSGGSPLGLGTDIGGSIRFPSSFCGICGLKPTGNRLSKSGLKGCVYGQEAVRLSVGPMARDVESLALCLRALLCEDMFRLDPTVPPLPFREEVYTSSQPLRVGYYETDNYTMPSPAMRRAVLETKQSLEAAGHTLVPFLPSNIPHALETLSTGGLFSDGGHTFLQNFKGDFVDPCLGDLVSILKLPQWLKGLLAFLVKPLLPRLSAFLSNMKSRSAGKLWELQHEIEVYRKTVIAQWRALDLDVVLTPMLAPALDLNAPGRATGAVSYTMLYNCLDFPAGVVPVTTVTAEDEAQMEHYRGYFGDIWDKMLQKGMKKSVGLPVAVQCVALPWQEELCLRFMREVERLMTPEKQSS
assay.text: biochemical
experimental.setup: human FAAH; read-out: hFAAH IC50
Write the number in nM without appending the unit.

# annotated cases, reported IC50 shown
molecule	experimental.system	scale.unit	meas.value
O=C(NC1CCC(=Cc2cccc(Oc3ccc(C(F)(F)F)cn3)c2)CC1)c1ccncc1 (stereo not shown)	human Fatty Acid Amide Hydrolase (FAAH) (Homo sapiens (Human))	nM	14
O=C(NC1CCC(=Cc2cccc(Oc3ccc(C(F)(F)F)cn3)c2)CC1)c1ccnnc1 (stereo not shown)	human Fatty Acid Amide Hydrolase (FAAH) (Homo sapiens (Human))	nM	10
Cc1[nH]ncc1C(=O)NC1CCC(=Cc2cccc(Oc3ccc(C(F)(F)F)cn3)c2)CC1 (stereo not shown)	human Fatty Acid Amide Hydrolase (FAAH) (Homo sapiens (Human))	nM	5

For the next question, use this molecule.
Query: Identify the reported IC50 for the following entry. O=C(NC1CCC(=Cc2cccc(Oc3ccc(C(F)(F)F)cn3)c2)CC1)c1ncccn1 (stereo not shown)
Response: 15

* * *

experimental.system: human Fatty Acid Amide Hydrolase (FAAH) (Homo sapiens (Human))
assay.text: biochemical
experimental.setup: read-out: hFAAH % inhibition at 100 nM; human FAAH; 100 nM (tier I)
Entry flag: condition met if inhibition at 0.1 µM reaches 50%; condition not met if it does not.

Take a look at these entries with their results.
compound	label
Cc1n[nH]c(C(C)C)c1C(=O)NC1CCC(=Cc2cccc(Oc3ccc(C(F)(F)F)cn3)c2)CC1 (stereo not shown)	condition not met
O=C(O)Cn1cc(-c2ccc(C(=O)NC3CCC(=Cc4cccc(Oc5ccc(C(F)(F)F)cn5)c4)CC3)cn2)cn1 (stereo not shown)	condition met
O=C(NC1CCC(=Cc2cccc(Oc3ccc(C(F)(F)F)cn3)c2)CC1)c1ccc(N2CCCC2)nc1 (stereo not shown)	condition met
O=C(O)Cn1cc(C(=O)NC2CCC(=Cc3cccc(Oc4ccc(C(F)(F)F)cn4)c3)CC2)cn1 (stereo not shown)	condition not met
Nc1ccc(C(=O)NC2CCC(=Cc3cccc(Oc4ccc(C(F)(F)F)c(C5CC5)n4)c3)CC2)cn1 (stereo not shown)	condition not met

Note: attention shifts to another entry.
Query: Has Cn1cc(C(=O)NC2CCC(=Cc3cccc(Oc4ccc(C(F)(F)F)cn4)c3)CC2)cn1 (stereo not shown) a recorded inhibition at 0.1 µM greater than or equal to 50%?
Response: condition not met

* * *

Parameter pIC50: see the listing below.
experimental.system: rat Fatty Acid Amide Hydrolase (FAAH) (Rattus norvegicus (Rat), UniProt P97612)
assay.text: FAAH in vitro fluorescence assay (AAMCA hydrolysis), rat enzyme
Type: biochemical
experimental.setup: rat FAAH; read-out: rFAAH IC50
On this scale, pIC50 is minus log10 of a concentration expressed in M (mol/L).

# annotated cases, reported pIC50 shown
compound	pIC50
Cc1cc(C(=O)NC2CCC(=Cc3cccc(Oc4ccc(C(F)(F)F)cn4)c3)CC2)cnc1N (single isomer, unassigned; (-))	8.00
O=C(NC1CCC(=Cc2cccc(Oc3ccc(C(F)(F)F)cn3)c2)CC1)c1cccnn1 (stereo not drawn) [Example 2.A-11]	6.71
CN(C)c1ccc(C(=O)NC2CCC(=Cc3cccc(Oc4ccc(C(F)(F)F)cn4)c3)CC2)cn1 (stereo not drawn)	7.89
O=C(NC1CCC(=Cc2cccc(Oc3ccc(C(F)(F)F)cn3)c2)CC1)c1ccc(-n2ccnn2)nc1 (stereo not drawn)	7.96
Cc1nc(Oc2cccc(C=C3CCC(NC(=O)c4cnc(N)nc4)CC3)c2)ccc1C(F)(F)F (stereo not drawn)	7.68

For the next question, use this compound.
Query: State pIC50 (rat Fatty Acid Amide Hydrolase (FAAH) (Rattus norvegicus (Rat), UniProt P97612)) of O=C(NC1CCC(=Cc2cccc(Oc3ccc(C(F)(F)F)cn3)c2)CC1)c1cnc2[nH]ccc2c1 (single isomer, unassigned; (-)) [Example 20.A-14] .
Response: 8.07

* * *

experimental.system: UniProtKB P97612
assay.text: FAAH in vitro fluorescence assay (AAMCA hydrolysis), rat enzyme
Assay type: biochemical
experimental.setup: rat FAAH; read-out: rFAAH IC50
Assign labels as follows, please: T for IC50 below 10 nM; F for IC50 equal to or exceeding 10 nM.

Take a look at these entries with their results.
compound	label
COc1ccc(C(=O)NC2CCC(=Cc3cccc(Oc4ccc(C(F)(F)F)cn4)c3)CC2)cn1 (stereo not shown) [Example 2.C-2]	F
O=C(NC1CCC(=Cc2cccc(Oc3ccc(C(F)(F)F)cn3)c2)CC1)c1cn[nH]c1 (single isomer, unassigned; (-)) [Example 20.A-12]	F
O=C(NC1CCC(=Cc2cccc(Oc3ccc(C(F)(F)F)cn3)c2)CC1)c1ccc(-n2cnnc2)nc1 (stereo not shown) [Example 2.B-13]	F
O=C(NC1CCC(=Cc2cccc(Oc3ccc(C(F)(F)F)cn3)c2)CC1)c1ccc(-n2nccn2)nc1 (stereo not shown) [Example 2.B-15]	T
O=C(NC1CCC(=Cc2cccc(Oc3ccc(C(F)(F)F)cn3)c2)CC1)c1cncc(O)c1 (stereo not shown) [Example 2.C-4]	F

Query: Decide: IC50 of Cc1cc(C(=O)NC2CCC(=Cc3cccc(Oc4ccc(C(F)(F)F)c(C)n4)c3)CC2)cnc1N (stereo not shown) [Example 2.E-23] strictly below 10 nM?
Response: F

Query: Decide: IC50 of O=C(NC1CCC(=Cc2cccc(Oc3ccc(C(F)(F)F)cn3)c2)CC1)c1ccc(-n2cccn2)nc1 (stereo not shown) [Example 5.A-6] strictly below 10 nM?
Response: T

* * *

experimental.system: human Fatty Acid Amide Hydrolase (FAAH) (Homo sapiens (Human))
assay.text: biochemical
experimental.setup: hFAAH IC50
Parameter IC50: see the listing below.
Write the number in nM without appending the unit.

# annotated cases, reported IC50 shown
compound	IC50 (nM)
O=C(NC1CCC(=Cc2cccc(Oc3ccc(C(F)(F)F)cn3)c2)CC1)c1cccnc1 (single isomer, unassigned; (-)) [Example 20.A-2]	0.7
Nc1ncc(C(=O)NC2CCC(=Cc3cccc(Oc4ccc(C(F)(F)F)cn4)c3)CC2)cc1Cl (stereo not shown)	3
O=C(O)c1cnn(-c2ccc(C(=O)NC3CCC(=Cc4cccc(Oc5ccc(C(F)(F)F)cn5)c4)CC3)cn2)c1 (stereo not shown)	27

For the next question, use this compound.
Query: Identify the reported IC50 for the following entry. O=C(NC1CCC(=Cc2cccc(Oc3ccc(C(F)(F)F)cn3)c2)CC1)c1cccnc1 (stereo not shown) [Example 2.1]
Response: 2

* * *

experimental.system: human Fatty Acid Amide Hydrolase (FAAH) (Homo sapiens (Human))
assay.text: biochemical
experimental.setup: human FAAH; read-out: hFAAH IC50
Parameter IC50: see the listing below.
Write the number in nM without appending the unit.

molecule	experimental.system	outcome.measure	meas.value
Cc1cc(C(=O)NC2CCC(=Cc3cccc(Oc4ccc(C(F)(F)F)c(C)n4)c3)CC2)cnc1N (stereo not shown) [Example 2.E-23]	human Fatty Acid Amide Hydrolase (FAAH) (Homo sapiens (Human))	IC50	12
O=C(NC1CCC(=Cc2cccc(Oc3ccc(C(F)(F)F)cn3)c2)CC1)c1ccccn1 (stereo not shown) [Example 2.A-4]	human Fatty Acid Amide Hydrolase (FAAH) (Homo sapiens (Human))	IC50	508
O=C(NC1CCC(=Cc2cccc(Oc3ccc(C(F)(F)F)cn3)c2)CC1)c1cncc(Cl)c1 (stereo not shown) [Example 2.A-32]	human Fatty Acid Amide Hydrolase (FAAH) (Homo sapiens (Human))	IC50	6
O=C(NC1CCC(=Cc2cccc(Oc3ccc(C(F)(F)F)cn3)c2)CC1)c1ccc(O)nc1 (stereo not shown) [Example 2.C-3]	human Fatty Acid Amide Hydrolase (FAAH) (Homo sapiens (Human))	IC50	19
CCc1ccc(C(=O)NC2CCC(=Cc3cccc(Oc4ccc(C(F)(F)F)cn4)c3)CC2)cn1 (stereo not shown) [Example 2.A-43]	human Fatty Acid Amide Hydrolase (FAAH) (Homo sapiens (Human))	IC50	4

Query: Identify the reported IC50 for the following entry. CCN(C)c1ccc(C(=O)NC2CCC(=Cc3cccc(Oc4ccc(C(F)(F)F)cn4)c3)CC2)cn1 (stereo not shown) [Example 5.A-7]
Response: 128

Query: Identify the reported IC50 for the following entry. Cc1cc(C(=O)NC2CCC(=Cc3cccc(Oc4ccc(Cl)c(C)n4)c3)CC2)cnc1N (stereo not shown) [Example 2.E-25]
Response: 7

Query: Identify the reported IC50 for the following entry. Cc1nc(Oc2cccc(C=C3CCC(NC(=O)c4cnc(N)nc4)CC3)c2)ccc1Cl (single isomer, unassigned; (-)) [Example 20.A-22]
Response: 1.1

Query: Identify the reported IC50 for the following entry. Cc1nc(Oc2cccc(C=C3CCC(NC(=O)c4ccc(N)nc4)CC3)c2)ccc1Cl (stereo not shown) [Example 2.E-16]
Response: 3

Query: Identify the reported IC50 for the following entry. O=C(Nc1cnccn1)C1CCC(=Cc2cccc(Oc3ccc(C(F)(F)F)cn3)c2)CC1 (stereo not shown) [Example 1.A-3]
Response: 9

Query: Identify the reported IC50 for the following entry. O=C(Nc1cccnn1)C1CCC(=Cc2cccc(Oc3ccc(C(F)(F)F)cn3)c2)CC1 (stereo not shown) [Example 1.A-1]
Response: 17

Query: Identify the reported IC50 for the following entry. CCc1nc(Oc2cccc(C=C3CCC(NC(=O)c4ccc(N)nc4)CC3)c2)ccc1C(F)(F)F (stereo not shown) [Example 2.E-24]
Response: 34

Query: Identify the reported IC50 for the following entry. O=C(NC1CCC(=Cc2cccc(Oc3ccc(C(F)(F)F)cn3)c2)CC1)c1cn[nH]c1 (stereo not shown) [Example 2.A-9]
Response: 2

Query: Identify the reported IC50 for the following entry. O=C(NC1CCC(=Cc2cccc(Oc3ccc(C(F)(F)F)cn3)c2)CC1)c1ccc(-n2nccn2)nc1 (stereo not shown) [Example 2.B-15]
Response: 3

Query: Identify the reported IC50 for the following entry. Cc1ncccc1C(=O)NC1CCC(=Cc2cccc(Oc3ccc(C(F)(F)F)cn3)c2)CC1 (stereo not shown) [Example 2.A-28]
Response: 31

Query: Identify the reported IC50 for the following entry. Cc1nnc(C(=O)NC2CCC(=Cc3cccc(Oc4ccc(C(F)(F)F)cn4)c3)CC2)o1 (stereo not shown) [Example 2.A-20]
Response: 334

Query: Identify the reported IC50 for the following entry. O=C(NC1CCC(=Cc2cccc(Oc3ccc(C(F)(F)F)cn3)c2)CC1)c1cncc(O)c1 (stereo not shown) [Example 2.C-4]
Response: 4

Query: Identify the reported IC50 for the following entry. O=C(NC1CCC(=Cc2cccc(Oc3ccc(C(F)(F)F)cn3)c2)CC1)c1cn[nH]c1 (single isomer, unassigned; (+)) [Example 20.A-11]
Response: 78

Query: Identify the reported IC50 for the following entry. Cc1nc(Oc2cccc(C=C3CCC(NC(=O)c4c[nH]nc4C(F)(F)F)CC3)c2)ccc1C(F)(F)F (stereo not shown) [Example 2.E-18]
Response: 13

Query: Identify the reported IC50 for the following entry. O=C(NC1CCC(=Cc2cccc(Oc3ccc(C(F)(F)F)cn3)c2)CC1)c1ccc(-n2cc(Cl)cn2)nc1 (stereo not shown) [Example 2.B-8]
Response: 5

Query: Identify the reported IC50 for the following entry. O=C(NC1CCC(=Cc2cccc(Oc3ccc(C(F)(F)F)cn3)c2)CC1)c1ccc(NC2CC2)nc1 (stereo not shown) [Example 5.A-10]
Response: 25

Query: Identify the reported IC50 for the following entry. Cc1ccn(-c2ccc(C(=O)NC3CCC(=Cc4cccc(Oc5ccc(C(F)(F)F)cn5)c4)CC3)cn2)n1 (stereo not shown) [Example 2.B-9]
Response: 9
